Where these numbers come from: patent US9062078B2

biological target: human orexin 2 receptor (Homo sapiens (Human)); assay: Human orexin 2 receptor radioligand binding (competitive, [3H]-EMPA, HEK293 cell preparations); details: human orexin 2 receptor, [3H]-EMPA competition binding; read-out: hOX2 Ki (nm)
Attribute Measured: pKi
One number for each entry, as −log10 of the molar value.

Take a look at these entries with their results.
Compound: Cc1ccc(C(=O)N2C3CCC2C(COc2ccc(F)cn2)C3)c(-n2nccn2)c1 (racemic)
Study Target: human orexin 2 receptor (Homo sapiens (Human))
pKi: 6.47

Compound: Cc1ccn2c(C)cnc2c1C(=O)N1C2CCC1C(COc1ccccn1)C2 (racemic)
Study Target: human orexin 2 receptor (Homo sapiens (Human))
pKi: 5.07

Compound: O=C(c1cc(F)ccc1-n1nccn1)N1C2CCC1C(COc1cnc3ccccc3n1)C2 (racemic) [Example 166]
Study Target: human orexin 2 receptor (Homo sapiens (Human))
pKi: 5.94

Compound: COc1c(F)cccc1C(=O)N1C2CCC1C(COc1ccc(F)cn1)C2 (racemic) [Example 107]
Study Target: human orexin 2 receptor (Homo sapiens (Human))
pKi: 5.66

Compound: O=C(c1cc(F)ccc1-n1nccn1)N1[C@@H]2CC[C@H]1[C@H](Nc1cnc(C(F)(F)F)cn1)C2
Study Target: human orexin 2 receptor (Homo sapiens (Human))
pKi: 5.96

For every record below, what is its pKi?
1. Cc1ccc(-n2nccn2)c(C(=O)N2C3CCC2C(COc2cccnc2C)C3)n1 (racemic)
2. Cc1ccc(C(=O)N2[C@@H]3CC[C@H]2[C@H](Nc2cnc(C(F)(F)F)cn2)C3)c(-n2nccn2)n1

[5.66, 5.95]

----------
target: human orexin 1 receptor (Homo sapiens (Human)); test: Human orexin 1 receptor radioligand binding (competitive, [3H]-SB674042, CHO cell preparations); conditions: human orexin 1 receptor, [3H]-SB674042 competition binding; read-out: hOX1 Ki (nm)
Sequence (O43613 whole entry): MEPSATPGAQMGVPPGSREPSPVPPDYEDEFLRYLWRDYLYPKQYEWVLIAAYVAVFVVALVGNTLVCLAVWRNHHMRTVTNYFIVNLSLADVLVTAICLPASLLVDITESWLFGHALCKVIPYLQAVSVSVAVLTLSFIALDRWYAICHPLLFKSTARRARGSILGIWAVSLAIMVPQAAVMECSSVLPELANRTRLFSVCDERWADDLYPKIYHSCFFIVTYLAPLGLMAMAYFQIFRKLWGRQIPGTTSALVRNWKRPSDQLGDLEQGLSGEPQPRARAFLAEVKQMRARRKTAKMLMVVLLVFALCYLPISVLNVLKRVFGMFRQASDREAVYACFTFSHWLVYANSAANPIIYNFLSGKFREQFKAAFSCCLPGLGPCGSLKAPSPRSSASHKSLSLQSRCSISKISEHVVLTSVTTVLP
So I've got a bunch of molecules here, and I need their Ki values.
Answers are plain numbers, in nM.

The cases that follow already have their Ki on record.
Molecule: Cc1cccc(OCC2CC3CCC2N3C(=O)c2ccccc2-c2nc(C)no2)n1 (racemic) [Example 141]
Attribute Measured: Ki
Reading: 280

Molecule: O=C(c1cc(F)ccc1-n1nccn1)N1C2CCC1C(CNc1cccc(C(F)(F)F)n1)C2 (racemic) [Example 172]
Attribute Measured: Ki
Reading: 686

Now for a further molecule.
Requested read-out: Ki. Entry: Cc1ccc(C(=O)N2C3CCC2C(COc2ccc(F)cn2)C3)c(-n2nccn2)c1 (racemic) [Example 121]
68

----------
Kindly state pKi for each of the entries shown.
target: human orexin 2 receptor (Homo sapiens (Human)); assay: Human orexin 2 receptor radioligand binding (competitive, [3H]-EMPA, HEK293 cell preparations); details: human orexin 2 receptor, [3H]-EMPA competition binding; read-out: hOX2 Ki (nm)
Numbers only, as −log10 of the molar value.

Here's what some known entries look like.
Compound: Cc1ccc(-n2nccn2)c(C(=O)N2[C@@H]3CC[C@H]2[C@H](COc2ccc(F)cn2)C3)c1 [Example 10A]
pKi: 7.49

Compound: Cc1cc(C)nc(NC2CC3CCC2N3C(=O)c2ccc(F)cc2-n2nccn2)n1 (racemic)
pKi: 6.26

Compound: Cc1cccc(C(=O)N2[C@@H]3CC[C@H]2[C@H](Nc2cnc(C(F)(F)F)cn2)C3)c1-n1nccn1
pKi: 6.54

Compound: Cc1ccc(OCC2CC3CCC2N3C(=O)c2cccc(F)c2-n2nccn2)nc1 (racemic)
pKi: 6.60

Compound: Cc1ccc(C(=O)N2C3CCC2C(COc2ccc(F)cn2)C3)c(-c2ncccn2)c1 (racemic)
pKi: 6.00

Count: 6. Required value per item: pKi.
1. CCOc1nc(C)ccc1C(=O)N1C2CCC1C(COc1ccccn1)C2 (racemic)
2. O=C(c1ccccc1-n1nccn1)N1C2CCC1C(Nc1ccc(C(F)(F)F)cn1)C2 (racemic)
3. O=C(c1ccc(F)cc1-c1ncccn1)N1[C@@H]2CC[C@H]1[C@H](Nc1cnc(C(F)(F)F)cn1)C2
4. COc1ccc(NC2CC3CCC2N3C(=O)c2ccccc2-n2nccn2)nc1 (racemic)
5. O=C(c1cccc(F)c1-c1ncccn1)N1[C@@H]2CC[C@H]1[C@H](Nc1nccn3c(Br)cnc13)C2
6. Cc1ccc(N2CCCC2)c(C(=O)N2C3CCC2C(COc2ncc(F)cn2)C3)n1 (racemic)

5.75
5.82
5.77
5.12
6.84
5.92

----------
biological target: human orexin 1 receptor (Homo sapiens (Human)); experiment: Human orexin 1 receptor radioligand binding (competitive, [3H]-SB674042, CHO cell preparations); conditions: read-out: hOX1 Ki (nm)
I'd be grateful if you could share measured pKi for these entries.
Answers are plain numbers, as −log10 of the molar value.

Worked examples follow.
Compound: Cc1cnc(N[C@@H]2C[C@H]3CC[C@@H]2N3C(=O)c2cccc(F)c2-c2ncccn2)cn1 [Example 278]
pKi: 7.11
--
Compound: Cc1cccc(C(=O)N2[C@@H]3CC[C@H]2[C@H](Nc2cnc(C(F)(F)F)cn2)C3)c1-n1nccn1 [Example 245]
pKi: 8.15
--
Compound: O=C(c1cccc(F)c1-c1ncco1)N1[C@@H]2CC[C@H]1[C@H](Nc1cnc(C(F)(F)F)cn1)C2 [Example 260]
pKi: 8.00
--
Compound: Cc1nc(C(=O)N2[C@@H]3CC[C@H]2[C@H](Nc2cnc(C(F)(F)F)cn2)C3)c(-c2ccc(F)cc2)s1 [Example 244]
pKi: 7.34
--
Compound: Cc1ccc(-n2nccn2)c(C(=O)N2C3CCC2C(COc2ncccc2C)C3)n1 (racemic) [Example 176]
pKi: 6.82
--
Compound: COc1ccc(-n2nccn2)c(C(=O)N2[C@@H]3CC[C@H]2[C@H](Nc2cnc(C(F)(F)F)cn2)C3)c1 [Example 255]
pKi: 7.54
--
Compound: COc1ccc(C(=O)N2[C@@H]3CC[C@H]2[C@H](Nc2cnc(C(F)(F)F)cn2)C3)c(-c2ncccn2)c1 [Example 249]
pKi: 7.27
--
Compound: O=C(c1ccc(F)cc1-c1ncccn1)N1[C@@H]2CC[C@H]1[C@H](Nc1cnc(C(F)(F)F)cn1)C2 [Example 267]
pKi: 7.21
--
Compound: O=C(c1cccc(F)c1-c1ncccn1)N1[C@@H]2CC[C@H]1[C@H](Nc1cnc(C(F)(F)F)cn1)C2 [Example 238]
pKi: 7.80
--
Compound: CCOc1ncc2ccccc2c1C(=O)N1[C@@H]2CC[C@H]1[C@H](COc1ccccn1)C2 [Example 164]
pKi: 8.15

Consider the following items and state reported pKi for each.
1. Cc1cccc(C(=O)N2[C@@H]3CC[C@H]2[C@H](Nc2ncc(C(F)(F)F)cn2)C3)c1-n1nccn1 [Example 272]
2. O=C(c1cccc(F)c1-c1ncccn1)N1[C@@H]2CC[C@H]1[C@H](Nc1ncc(C(F)(F)F)cn1)C2 [Example 271]

1: 7.59; 2: 7.38

Provide pKi for all items below, preserving their order.
1. COc1cccc(-n2nccn2)c1C(=O)N1[C@@H]2CC[C@H]1[C@H](Nc1cnc(C(F)(F)F)cn1)C2 [Example 242]
2. Cc1noc(-c2c(F)cccc2C(=O)N2[C@@H]3CC[C@H]2[C@H](Nc2cnc(C(F)(F)F)cn2)C3)n1 [Example 254]

[7.39, 7.70]

----------
molecular target: UniProt P56718; test: Rat orexin 1 receptor radioligand binding (competitive, [3H]-SB674042, HEK293 cell preparations); conditions: rat orexin 1 receptor, [3H]-SB674042 competition binding; read-out: rOX1 Ki (nm)
Attribute Measured: pKi
One number for each entry, as −log10 of the molar value.

Compound: Cc1ccc(-c2ncccc2C)c(C(=O)N2C3CCC2C(COc2ccccn2)C3)n1 (racemic) [Example 90]
pKi: 5.52

Parameters: items (list). Returns: pKi for each item.
1. Cc1cccc(-n2nccn2)c1C(=O)N1C2CCC1C(COc1ccc(F)cn1)C2 (racemic) [Example 110]
2. Cc1ccc(-c2ncccn2)c(C(=O)N2C3CCC2C(Nc2ncc(C(F)(F)F)cn2)C3)n1 (racemic) [Example 225]
3. COc1c(F)cccc1C(=O)N1C2CCC1C(Nc1cnc3ccccc3n1)C2 (single isomer, unassigned) [Example 206]
4. Cc1cnc(C(=O)N2C3CCC2C(COc2ccccn2)C3)c(-n2nccn2)c1 (racemic) [Example 71]
5. CCOc1ccc(C)nc1C(=O)N1C2CCC1C(COc1ccc(C(F)(F)F)cn1)C2 (racemic) [Example 48]
6. O=C(c1cccc(F)c1-c1ncccn1)N1[C@@H]2CC[C@H]1[C@H](Nc1nccn3c(Br)cnc13)C2 [Example 270]
7. CCOc1ccc(C)nc1C(=O)N1C2CCC1C(Nc1ncc(C(F)(F)F)cn1)C2 (single isomer, unassigned) [Example 224]

1: 7.27; 2: 6.28; 3: 5.92; 4: 5.92; 5: 5.41; 6: 6.49; 7: 5.60

----------
target: human orexin 2 receptor (Homo sapiens (Human), UniProt O43614); test: Human orexin 2 receptor radioligand binding (competitive, [3H]-EMPA, HEK293 cell preparations); conditions: hOX2 Ki (nm)
Sequence (O43614 whole entry): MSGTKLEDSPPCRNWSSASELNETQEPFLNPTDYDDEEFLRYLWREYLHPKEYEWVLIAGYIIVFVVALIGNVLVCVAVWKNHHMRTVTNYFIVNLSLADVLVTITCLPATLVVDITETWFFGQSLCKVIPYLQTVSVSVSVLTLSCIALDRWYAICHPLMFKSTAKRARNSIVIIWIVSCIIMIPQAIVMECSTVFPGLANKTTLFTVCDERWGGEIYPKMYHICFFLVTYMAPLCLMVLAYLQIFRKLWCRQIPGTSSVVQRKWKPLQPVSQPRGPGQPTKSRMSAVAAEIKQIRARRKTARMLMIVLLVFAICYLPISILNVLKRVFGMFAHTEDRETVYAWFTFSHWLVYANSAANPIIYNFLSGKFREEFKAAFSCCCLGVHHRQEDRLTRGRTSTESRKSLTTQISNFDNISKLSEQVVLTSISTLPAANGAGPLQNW
Attribute Measured: pKi
Give bare numbers, as −log10 of the molar value.

Compound: Cc1cnc(C(=O)N2C3CCC2C(Nc2cnc(C(F)(F)F)cn2)C3)c(-n2nccn2)c1 (racemic) [Example 184]
pKi: 5.39

Compound: Cc1ccc(-n2nccn2)c(C(=O)N2[C@@H]3CC[C@H]2[C@H](COc2ccccn2)C3)n1 [Example 5A]
pKi: 6.37

Compound: O=C(c1cccc(F)c1-c1ncccn1)N1C2CCC1C(COc1ccccn1)C2 (racemic) [Example 52]
pKi: 5.64

Compound: O=C(c1cc(F)ccc1-c1ccn[nH]1)N1C2CCC1C(COc1ccc(F)cn1)C2 (racemic) [Example 109]
pKi: 7.00

Now look at this entry.
Endpoint output: pKi of Cc1noc(-c2ccccc2C(=O)N2C3CCC2C(COc2cccc(C(F)(F)F)n2)C3)n1 (racemic) [Example 145] . Value?
6.48
